Recorded measurements of pIC50, one per entry
assay.method.text: Compound was evaluated for inhibitory activity against herpes simplex type 2 protease (HSV-2 pr).
pIC50: −log10 of the molar value.

{"record.smiles": "CC(=O)Oc1ccc([C@H]2C[C@@]23N=C(c2ccccc2)OC3=O)cc1", "pIC50": 5.92}
{"record.smiles": "O=C1OC(c2ccccc2)=N[C@@]12C[C@@H]2c1ccccc1", "pIC50": 6.15}

Hello, the source for this data is BindingDB's records for doi:10.1016/0960-894X(96)00456-8, in case you need it.
